molecular target: MAP/microtubule affinity-regulating kinase 4 (Homo sapiens) (UniProt Q96L34); details: at 1 µM;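 also: reported value is a mean MARK4 inhibition at 1 µM, taken from the GSK PKIS screening set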
Sequence (Q96L34 whole entry): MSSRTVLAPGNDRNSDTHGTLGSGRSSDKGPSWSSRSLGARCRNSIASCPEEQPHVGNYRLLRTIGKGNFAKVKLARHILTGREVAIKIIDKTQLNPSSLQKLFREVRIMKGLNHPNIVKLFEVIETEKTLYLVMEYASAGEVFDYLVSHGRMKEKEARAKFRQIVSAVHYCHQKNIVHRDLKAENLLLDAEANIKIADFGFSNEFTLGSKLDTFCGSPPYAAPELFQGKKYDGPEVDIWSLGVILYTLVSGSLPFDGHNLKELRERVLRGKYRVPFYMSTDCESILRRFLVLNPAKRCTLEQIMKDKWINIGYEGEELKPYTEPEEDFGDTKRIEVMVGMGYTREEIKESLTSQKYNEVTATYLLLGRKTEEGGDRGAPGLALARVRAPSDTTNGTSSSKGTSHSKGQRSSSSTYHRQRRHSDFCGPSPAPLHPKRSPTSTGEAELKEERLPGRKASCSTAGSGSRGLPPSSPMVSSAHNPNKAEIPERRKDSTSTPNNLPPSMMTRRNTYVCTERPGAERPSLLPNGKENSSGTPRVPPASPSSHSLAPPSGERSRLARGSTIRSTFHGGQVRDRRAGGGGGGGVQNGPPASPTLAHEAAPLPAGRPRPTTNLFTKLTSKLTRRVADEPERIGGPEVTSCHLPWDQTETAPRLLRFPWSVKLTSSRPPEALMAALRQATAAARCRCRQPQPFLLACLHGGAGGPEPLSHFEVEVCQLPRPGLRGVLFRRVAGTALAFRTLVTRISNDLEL
Measured inhibition, listed per entry for reference.

structure	studyTarget	inhibition (%)
COc1cccc(-n2cnc3c(N/N=C/c4ccncc4)ncnc32)c1	MAP/microtubule affinity-regulating kinase 4 (Homo sapiens) (UniProt Q96L34)	4.83
O=C(Nc1n[nH]c2nc(-c3ccc(O)cc3)c(Br)cc12)C1CC1	MAP/microtubule affinity-regulating kinase 4 (Homo sapiens) (UniProt Q96L34)	4.75
C[C@@H](Oc1cc(-n2cnc3ccc(OC4CCN(C)CC4)cc32)sc1C(N)=O)c1ccccc1Cl	MAP/microtubule affinity-regulating kinase 4 (Homo sapiens) (UniProt Q96L34)	5.68
COc1cc2ncn(-c3cc(OCc4cccs4)c(C(N)=O)s3)c2cc1OC	MAP/microtubule affinity-regulating kinase 4 (Homo sapiens) (UniProt Q96L34)	9.4
CCS(=O)(=O)c1ccc(OC)c(Nc2ncc(-c3ccccc3Cl)o2)c1	MAP/microtubule affinity-regulating kinase 4 (Homo sapiens) (UniProt Q96L34)	0.41
Cc1nnc(-c2ccc(C)c(-c3ccc(C(=O)NCc4ccc(Cl)cc4)cc3)c2)o1	MAP/microtubule affinity-regulating kinase 4 (Homo sapiens) (UniProt Q96L34)	1.96
COc1ccc(-c2ccc3c(NC(=O)C4CC4)n[nH]c3n2)cc1	MAP/microtubule affinity-regulating kinase 4 (Homo sapiens) (UniProt Q96L34)	-0.43
CCN(CC)Cc1ccc(Nc2nccc(-c3cnn4ncccc34)n2)cc1	MAP/microtubule affinity-regulating kinase 4 (Homo sapiens) (UniProt Q96L34)	18.9
COc1cc(Nc2ncc(-c3ccccc3)o2)cc(OC)c1OC	MAP/microtubule affinity-regulating kinase 4 (Homo sapiens) (UniProt Q96L34)	13.4
COc1cccc(/C=N/Nc2ncnc3c2cnn3-c2cccc(OC)c2)c1	MAP/microtubule affinity-regulating kinase 4 (Homo sapiens) (UniProt Q96L34)	0.58
C[C@@H](Oc1cc(-n2cnc3ccc(OCC4CCN(C)CC4)cc32)sc1C(N)=O)c1ccccc1Cl	MAP/microtubule affinity-regulating kinase 4 (Homo sapiens) (UniProt Q96L34)	23.9
